Give pEC50 for every item shown.
measured target: D-amino-acid oxidase (Mus musculus, UniProt P18894)
Sequence (P18894 whole entry): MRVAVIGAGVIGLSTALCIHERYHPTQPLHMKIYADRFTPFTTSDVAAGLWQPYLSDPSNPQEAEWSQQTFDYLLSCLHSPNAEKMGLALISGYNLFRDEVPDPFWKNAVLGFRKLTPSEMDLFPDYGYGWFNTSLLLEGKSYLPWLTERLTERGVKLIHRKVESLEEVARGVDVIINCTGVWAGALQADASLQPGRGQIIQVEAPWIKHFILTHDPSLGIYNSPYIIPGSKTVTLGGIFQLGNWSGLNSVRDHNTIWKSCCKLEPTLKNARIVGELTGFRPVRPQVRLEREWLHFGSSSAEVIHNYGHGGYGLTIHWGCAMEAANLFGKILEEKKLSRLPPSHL
experiment description: Inhibition of full length mouse DAO transfected with CHO-K1 cells incubated for 30 mins by Amplex red and horseradish peroxidase based fluorescence assay
Numbers only, as −log10 of the molar value.

Completed entries (count: 3):
compound	measured target	meas value
O=c1[nH]nc(Cc2ccc(Cl)cc2)cc1O	D-amino-acid oxidase (Mus musculus, UniProt P18894)	8.38
O=c1[nH]cc(SCc2ccc(C(F)(F)F)cc2)[nH]c1=O	D-amino-acid oxidase (Mus musculus, UniProt P18894)	6.62
N#Cc1ccc(CCc2c[nH]c(=O)c(=O)[nH]2)cc1	D-amino-acid oxidase (Mus musculus, UniProt P18894)	5.82

Would you mind giving pEC50 for every compound in the list below?
1. CS(=O)(=O)c1ccc(SCc2c[nH]c(=O)c(=O)[nH]2)cc1
2. N#Cc1ccc(SCc2c[nH]c(=O)c(=O)[nH]2)cc1Cl
3. N#Cc1ccc(SCc2c[nH]c(=O)c(=O)[nH]2)cc1F

Given back:
1: 5.64; 2: 6.25; 3: 6.01

Would you mind giving pEC50 for every compound in the list below?
1. O=c1[nH]cc(CSc2cnc3cc(Cl)ccc3c2)[nH]c1=O
2. N#Cc1ccc2c(c1)OC[C@@H](c1c[nH]c(=O)c(=O)[nH]1)S2
3. O=c1[nH]cc(CCc2ccc(-c3cc(O)n[nH]3)c(F)c2)[nH]c1=O

Given back:
1. 5.85
2. 6.11
3. 5.74

Would you mind giving pEC50 for every compound in the list below?
1. C[C@@]1(c2c[nH]c(=O)c(=O)[nH]2)COc2cc(S(C)(=O)=O)ccc2S1
2. CC1(c2c[nH]c(=O)c(=O)[nH]2)COc2ccccc2S1 (racemic)

Given back:
5.82
6.60

====

experiment description: Apparent permeability across apical to basolateral membrane in MDCK-MDR1 cells by LC-MS/MS analysis
assay setup: dog
I'd appreciate it if you marked entries yes (1) when Papp A→B is lower than 30 nm/s and no (0) when it is not.

Please review the entries below; each comes with its answer.
O=c1[nH]c(=O)n(O)cc1CCc1ccc(Cl)cc1 no (0)
O=c1[nH]cc(CCc2ccccc2)[nH]c1=O no (0)
N#Cc1ccc(CCc2c[nH]c(=O)c(=O)[nH]2)cc1F no (0)

Asked: Confirm or reject: Papp A→B of `O=c1[nH]cc(SCc2ccc(C(F)(F)F)nc2)[nH]c1=O` lies strictly below 30 nm/s
Given back: yes (1)

====

experiment description: Unbound drug concentration in C57Bl/6 mouse plasma at 2 mg/kg, po or 0.5 mg/kg,iv by LC-MS-MS analysis
Format: ADME, organism-based
assay setup: C57Bl/6, mouse, plasma
experimental endpoint: fraction unbound

Asked: Fill in: fraction unbound of `O=c1[nH]c2ccsc2[nH]c1=O` is ___
Given back: 0.22

====

measured target: D-amino-acid oxidase (Mus musculus, UniProt P18894)
experiment description: Inhibition of full length mouse DAO transfected with CHO-K1 cells incubated for 30 mins by Amplex red and horseradish peroxidase based fluorescence assay
experimental endpoint: pEC50
Answers are plain numbers, as −log10 of the molar value.

Completed entries (count: 4):
molecule	measured target	pEC50
CS(=O)(=O)c1ccc(CSc2c[nH]c(=O)c(=O)[nH]2)cc1	D-amino-acid oxidase (Mus musculus, UniProt P18894)	6.27
O=c1[nH]cc([C@@H]2COc3cc(Cl)ccc3S2)[nH]c1=O	D-amino-acid oxidase (Mus musculus, UniProt P18894)	6.66
C[C@@]1(c2c[nH]c(=O)c(=O)[nH]2)COc2cc(C(F)(F)F)ccc2S1	D-amino-acid oxidase (Mus musculus, UniProt P18894)	6.59
O=c1[nH]cc(C2COc3ccccc3S2)[nH]c1=O (racemic)	D-amino-acid oxidase (Mus musculus, UniProt P18894)	6.14

Asked: Fill in: pEC50 of `O=c1[nH]cc(CSc2ccc(C(F)(F)F)cc2)[nH]c1=O` is ___
Given back: 6.29
